Tested on: heat killed bacteria
assayExplanation: Tracer uptake in heat killed bacteria (negative control)
Type: cell-based
reportedEndpoint: uptake in heat killed bacteria

OC[C@@H](O)[C@@H](O)[C@H](O)[C@@H]([18F])CO [[^18F]FDS, 2-[^18F]-fluorodeoxysorbitol] ... did not incorporate
OC[C@H]1OC(O)[C@H]([18F])[C@@H](O)[C@@H]1O (stereo partly shown) [[^18F]FDG, 2-[^18F]-fluorodeoxyglucose, reference compound] ... did not incorporate
